Test system: AncSZ
RUN_DESCRIPTION: phosphorylation enrichment, bacterial display (enrichment ratio); higher = better substrate or ligand; peptides without Tyr show the background;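 also: 11-residue human phosphosite peptides and single-mutation variants displayed on the E. coli surface, counted by deep sequencing, each peptide's frequency after selection divided by its frequency in the unselected input library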;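 also: frequency after pTyr selection over input frequency; kinase dosed for 20-30% of maximal phosphorylation in three min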
Decision: phosphorylation enrichment compared against 1; not below it gives T, below it gives F.

* HRGCLYLAIEF [TEK_Y899_Y897C_YF] | T
* YGGLRCGYGVL [KRTAP20-2_Y13_Y13C] | F
* QRASDYYSQQM [GBP6_Y333_A331S] | F
* HKGASYAFRLS [PTPRD_Y891_V892A] | T
* HEDPMYDIIRD [RP9_Y142] | T
* LYSGDYYRIQG [DDR2_Y740] | T
* QTSTDYDIRFF [CSNK2A1_Y131_L128S_YF] | T
* EEGENYQKGEQ [CHGB_Y173_R178Q] | T
* FRRITYHNWRH [PDE6B_Y556_YF] | F
* VKANTYEKFWP [GATM_Y100_YF] | F
* SGAWSYNTSTE [SELE_Y24] | F
* RMQLPYDSTWE [PDGFRB_Y589_P584R] | T
* VIESSYTSADG [DHCR7_Y382_C380S] | F
* HKLSYYEYDFE [BTK_Y40] | T

----------
In this section we review reported phosphorylation enrichment values for a set of sequences.
Tested on: Fer (mouse)
RUN_DESCRIPTION: phosphorylation enrichment, bacterial display (enrichment ratio); higher = better substrate or ligand; peptides without Tyr show the background
MEASURED_ATTRIBUTE: phosphorylation enrichment

• SDVLSYGVTMW [ZAP70_Y525_W523L] = 0.523
• VTHKEYFIFLE [CAMKV_Y95_R92H] = 0.596
• PPPELYFVKVD [TERT_Y707] = 0.626
• FVSLIYTNFEA [GSTP1_Y109_I105V_YF] = 3.18
• ISDNAYQFMLT [MYH7_Y162_YF] = 5.75
• FFVVEYRNQKP [MUC17_Y4332_D4334N_YF] = 0.82
• LSAPCYLNRIS [HEXA_Y421_W420C] = 0.424

----------
TARGET_OR_TEST_SYSTEM: Hck (UniProt P08631)
Sequence (P08631 whole entry, looked up): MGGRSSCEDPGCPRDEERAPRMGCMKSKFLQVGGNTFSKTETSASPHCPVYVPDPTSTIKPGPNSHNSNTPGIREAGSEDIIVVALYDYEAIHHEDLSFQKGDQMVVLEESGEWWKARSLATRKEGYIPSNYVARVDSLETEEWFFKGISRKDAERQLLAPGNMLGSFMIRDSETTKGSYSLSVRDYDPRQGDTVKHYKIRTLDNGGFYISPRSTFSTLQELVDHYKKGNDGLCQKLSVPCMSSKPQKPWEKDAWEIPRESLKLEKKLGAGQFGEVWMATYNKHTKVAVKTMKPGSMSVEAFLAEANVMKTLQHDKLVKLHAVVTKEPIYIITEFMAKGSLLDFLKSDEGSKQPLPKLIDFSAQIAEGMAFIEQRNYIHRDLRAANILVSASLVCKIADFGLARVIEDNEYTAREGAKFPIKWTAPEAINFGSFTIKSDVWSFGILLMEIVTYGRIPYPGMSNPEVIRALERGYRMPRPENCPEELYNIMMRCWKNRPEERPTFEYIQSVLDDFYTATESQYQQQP
RUN_DESCRIPTION: phosphorylation enrichment, bacterial display (enrichment ratio); higher = better substrate or ligand; peptides without Tyr show the background
MEASURED_ATTRIBUTE: phosphorylation enrichment

- SLLKDYSPQLQ [OTC_Y345_T343K]: 0.504
- ANNEYYFRVCA: 0.657
- IHFAIYFLKYS [ARMC9_Y107_L108F]: 0.787
- MGRVKYGAFIN [GLB1_Y485_N484K_YF]: 0.439
- AAVDNYCRHNY [HLA-DRB1_Y107_T106N]: 0.461
- LRNIDYYRLDG [ATRX_Y2083]: 1.16
- IRGNMYFENSF [EGFR_Y112_YF]: 0.457
- RLQEDYDHSFF [ESD_Y258_G257D_YF]: 0.869
- FVSSFYHAFSG [ACTN4_Y265_YF]: 2.6
- DKMEAYNINET [TEKT4_Y210_D213N]: 0.535
- KLPDAYERLIL [G6PD_Y437]: 0.582
- NWGSPYKSDGC [ZNF347_Y261_N264D]: 0.442
- DWRQEYVLNEP [TGM1_Y267_S272P]: 0.397
- HPHECYAKVFD [ALB_Y394_D389H]: 0.654

----------
Test system: AncSZ
RUN_DESCRIPTION: phosphorylation enrichment, bacterial display (enrichment ratio); higher = better substrate or ligand; peptides without Tyr show the background
MEASURED_ATTRIBUTE: phosphorylation enrichment

- KPGVNYFFQVS: 1.15
- PLDGEYFTLRI [TP53_Y327_Q331R]: 2.77
- LDPDSYNKFEN [FOXC1_Y159_M161K]: 1.54
- RQQEVYLLFKQ [RARRES1_Y159_D158V_YF]: 1.57
- LNGDRYFKGIV [DCX_Y64_R59L]: 4.62
- LSAPCYLNRIS [HEXA_Y421_W420C]: 0.825
- DDLEVYLKHLL [SACS_Y3477]: 1.03
- LGKLIYPVGFW [NTHL1_Y177]: 1.6
- ATGGFYSFGGG [KRT24_Y120_YF]: 0.678
- RHPEVYHHLGI [NVL_Y290_V295I]: 0.694
- RSSNTYTLMDV [ALCAM_Y298_T301M]: 1.01
- DSSIRYLQEIF [FGG_Y135_YF]: 0.868
- KSLFHHRQYSA [CPS1_Y1491_Y1491H]: 0.573
- TLGPFYPSRLF [CRYAA_Y18]: 0.795

----------
TARGET_OR_TEST_SYSTEM: EPHB1 (UniProt P54762)
Sequence (P54762 whole entry, looked up): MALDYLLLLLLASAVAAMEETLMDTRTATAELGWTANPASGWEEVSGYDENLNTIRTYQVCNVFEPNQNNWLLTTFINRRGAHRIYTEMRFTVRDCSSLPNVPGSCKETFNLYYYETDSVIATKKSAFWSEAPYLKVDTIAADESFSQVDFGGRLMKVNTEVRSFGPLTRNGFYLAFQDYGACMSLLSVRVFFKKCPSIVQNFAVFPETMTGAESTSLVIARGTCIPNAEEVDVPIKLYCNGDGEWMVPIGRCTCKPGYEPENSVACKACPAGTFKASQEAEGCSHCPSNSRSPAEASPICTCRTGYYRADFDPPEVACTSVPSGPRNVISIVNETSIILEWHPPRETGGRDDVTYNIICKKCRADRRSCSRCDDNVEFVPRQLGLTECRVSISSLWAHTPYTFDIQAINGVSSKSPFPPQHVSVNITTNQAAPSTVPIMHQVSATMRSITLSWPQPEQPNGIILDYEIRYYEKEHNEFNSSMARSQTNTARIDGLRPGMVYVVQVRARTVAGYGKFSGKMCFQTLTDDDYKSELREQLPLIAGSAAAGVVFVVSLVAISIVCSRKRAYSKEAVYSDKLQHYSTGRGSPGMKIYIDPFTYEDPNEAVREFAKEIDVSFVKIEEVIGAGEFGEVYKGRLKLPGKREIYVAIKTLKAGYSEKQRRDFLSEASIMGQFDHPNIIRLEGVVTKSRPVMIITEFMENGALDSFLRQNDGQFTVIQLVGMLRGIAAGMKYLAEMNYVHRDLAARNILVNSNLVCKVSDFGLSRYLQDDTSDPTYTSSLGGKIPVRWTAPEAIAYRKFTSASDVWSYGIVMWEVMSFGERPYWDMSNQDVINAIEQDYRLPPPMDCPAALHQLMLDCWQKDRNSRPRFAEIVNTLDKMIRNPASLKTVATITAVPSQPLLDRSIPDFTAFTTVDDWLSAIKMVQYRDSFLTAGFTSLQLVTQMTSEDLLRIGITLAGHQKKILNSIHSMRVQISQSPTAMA
RUN_DESCRIPTION: phosphorylation enrichment, bacterial display (enrichment ratio); higher = better substrate or ligand; peptides without Tyr show the background
In this section we review reported phosphorylation enrichment values for a set of sequences.
MEASURED_ATTRIBUTE: phosphorylation enrichment

• MKKKIYAMGGG [GAN_Y424] = 0.335
• PKDSAYVTWEP = 1.03
• RDLEQYVNNVN [PCDH19_Y1097] = 0.64
• FSMGCYEIFLG [HMGCL_Y198_S201Y_YF] = 2.01
• SHNKYYMLVAH [MFSD8_Y134_R139H] = 1.06
• KNDSKYVVKGN [KIT_Y823_N822K] = 0.326
• YPPTHYIRRVP [SLC4A11_Y820] = 0.407
• FRIDHYLGKEM [G6PD_Y202_YF] = 0.448
• KWTVDYLGQVG [TYW5_Y48_S50G] = 0.515
• ARRMEYLASQK [FGFR2_Y616_G613R] = 0.947
• LSAPCYLNRIS [HEXA_Y421_W420C] = 0.447
• PDGHEYIFVDP [PDGFRA_Y572_YF] = 0.644
• LVMFISAIFGM [SCN1A_Y1684_Y1684S] = 1.1
• VVEYGYEFFAK [PPP1CB_Y254_D252Y] = 0.798
• VATRWYWSPEL [CDKL5_Y177_R178W] = 4.61
• SNMPSYSGHFT [GRIN2A_Y1224_T1223S] = 0.417
• RQQEVYLLFKQ [RARRES1_Y159_D158V_YF] = 0.915
• PLFKIYVAELI [MRPL28_Y230] = 0.919
• HTEGEYSSLEH [IDH3B_Y171_Q166H] = 1.44
• SVVAPYEPPEV [TP53_Y220_V218A] = 0.629
• SHMVNYQPYRK [TEX37_Y25_D24N] = 0.317
• HNVPIYEGYGL [ACTA1_Y168_A172G] = 31.8
• NIQKKYFRAIL [CHD7_Y1217_YF] = 0.37
• MGRVKYGAFIN [GLB1_Y485_N484K_YF] = 0.368
• NKPTVCGVSPN [ABL1_Y226_Y226C] = 0.476
• SVTCTSSPALN [TP53_Y126_Y126S] = 0.626
• EKEQNYDLTQV [ECD_Y448_E452Q] = 0.513
• LKRIAYFLCLR [LGI1_Y21_L26R] = 0.372
• DWRQEYVLNES [TGM1_Y267] = 0.55

----------
TARGET_OR_TEST_SYSTEM: Fyn (UniProt P06241)
Sequence (P06241 whole entry, looked up): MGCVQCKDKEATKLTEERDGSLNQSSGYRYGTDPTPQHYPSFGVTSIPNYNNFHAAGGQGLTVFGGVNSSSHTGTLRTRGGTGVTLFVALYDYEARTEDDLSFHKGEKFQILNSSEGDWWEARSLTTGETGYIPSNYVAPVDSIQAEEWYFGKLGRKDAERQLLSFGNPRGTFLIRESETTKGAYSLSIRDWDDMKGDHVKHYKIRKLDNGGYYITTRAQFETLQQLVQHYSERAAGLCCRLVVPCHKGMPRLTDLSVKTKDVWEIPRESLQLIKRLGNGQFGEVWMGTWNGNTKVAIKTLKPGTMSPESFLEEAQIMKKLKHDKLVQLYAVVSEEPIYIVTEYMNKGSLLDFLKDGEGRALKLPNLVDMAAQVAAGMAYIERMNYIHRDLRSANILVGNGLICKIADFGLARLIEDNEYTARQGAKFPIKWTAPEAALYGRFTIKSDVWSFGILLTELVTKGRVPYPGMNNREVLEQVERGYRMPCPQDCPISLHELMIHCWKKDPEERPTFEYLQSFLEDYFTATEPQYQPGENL
RUN_DESCRIPTION: phosphorylation enrichment, bacterial display (enrichment ratio); higher = better substrate or ligand; peptides without Tyr show the background
Classification by phosphorylation enrichment follows these ranges: bucket 1 (below 0.5), bucket 2 (0.5 to below 0.7), bucket 3 (0.7 or more)

- GAAMLYYPSVS [GPR143_Y177]: bucket 3
- GGDGSYVSVPS [TNNI3K_Y425]: bucket 1
- PIPAAYNRFDQ [CDC73_Y290_YF]: bucket 1
- DDSSAYCSVDE [BCKDHA_Y345_R346C]: bucket 2
- ERWLKYFPIEQ [HS3ST5_Y244]: bucket 1
- GACGGYCSVLG [RAB18_Y202]: bucket 1
- GCAGKYIAMVM [CYP19A1_Y441]: bucket 1
- YIIFIYAMKKK [SLCO1B1_Y645_L643F]: bucket 1
- KWTVDYLGQVG [TYW5_Y48_S50G]: bucket 1
- IIAVHYVLEES [RYR2_Y4559]: bucket 1
- GEDLSYGDVPP [IRS1_Y151]: bucket 2
- VKKNRYKDILP [PTPN12_Y64]: bucket 1
- HHTDEYEYDEL [TGM1_Y134]: bucket 3
- VSYDEYRYRSV [CFTR_Y515]: bucket 2
- TTPAVYARVAK [CTRB2_Y246]: bucket 3
- LTERGYSFTTT [ACTB_Y198]: bucket 1
- NVDGKYSYLKV [GRM3_Y478_G475D]: bucket 1
- PLFKIYVAELI [MRPL28_Y230]: bucket 2
- YAKSVYWDNTL [NUP107_Y296_E298D]: bucket 2
- NRLTDYFEPLL [BBS10_Y536_YF]: bucket 3
- SRDPFYEMLAA [CYTH1_Y382]: bucket 3
- VNFDDYTVNLG [GFPT1_Y367]: bucket 3
- DCAAIYGNEPD [AKR1A1_Y50_E55D]: bucket 3
- PLDGEYFTLRI [TP53_Y327_Q331R]: bucket 3
- LHRAHYDLHHT [AHSG_Y314_R317H]: bucket 2
- CRVEPYGENFN [APOA4_Y310_R305C]: bucket 1
- REENGYNTFAS [FGF10_Y161_I156R_YF]: bucket 3
